These measurements were taken from patent US20250027068.

target.of.assay: pooled human IgG
endpoint: Enzyme Activity Endpoint Assay (purified): Fc
State the result as a value with its unit after it.

Q: Please give the measured Enzyme Activity Endpoint Assay (purified): Fc for this protein: PRT-257 (protein) MVTSVWTKGVTPPTNFTYGEDVLHAPYVANQGWYDITKLFNGKDDLLCGAATAGNMLHWWFDQNKEQIENYLKKHPEKQKINFNGEQMFDVKEAIDTKDSQLDSKLFDYFKEKAFPYLSTKHLGVFPDHVIDMFINGYRLSLTNHGPTPVKRGSKDPRGGIFDAVFTRGDQSKLLTNRHDFKEKTLKEISDLIKQELTEGKALGISHTYANVRINHVINLWGADFDAEGNLEAIYVTDSDSNPSIGMKKYFVGVNSSGKVAISAKEIEEDNIGAQVLGLFTLSTGQDIWNQTN
Result: 439 ng/µL

Q: Now consider PRT-290 (protein) MVTSVWTKGVTPPADFTQGEDVFHAPYVANQGWYDITKTFNGKDDLLCGAATAGNMLHWWFDQNKEYIEAYLKKHPEKQKIMFGDQELLDVRKAINTKGSQKNSELFNYFRDKAFPNLSARRLGVMPDLVLDMFINGYYLNVTKTQTTDVNRTYQEKDKRGGIFDAVFTRGDQSKLLTSRHDFKEKGLKEISDLIKQELTEGKALGLSHTYANVRIGHVINLWGADFDSDGNLKAIYVTDSDSNASIGMKKYFVGVNSSGKVAISAKEIKEDNIGAQVLGLFTLSTGQDIWNQTN .
Result: 151 ng/µL

Q: Similarly, PRT-142 (protein) MRNATEAYAKEVPHQITSVWTKGVTPLTPEQFRYNNEDVFHAPYLAHQGWYDITKAFDGKDNLLCGAATAGNMLHWWFDQNKTEIEAYLSKHPEKQKIIFNNQELFDLKAAIDTKDSQTNSQLFNYFRDKAFPNLSARQLGVMPDLVLDMFINGYYLNVFKTQSTDVNRPYQDKDKRGGIFDAVFTRGDQTTLLTARHDLKNKGLNDISTIIKQELTEGRALALSHTYANVSISHVINLWGADFNAEGNLEAIYVTDSDANASIGMKKYFVGINAHGHVAISAKKIEGENIGAQVLGLFTLSSGKDIWQKLS ?
Result: 135 ng/µL

Q: What about PRT-113 (protein) MRNATEAYAKEVPHTITSVWTKGVTPPTPEQFTYYNEDVFHAPYLAHQGWYDITKTFNGKDNLLCGAATAGNMLHWWFDQNKTEIEAYLSKHPEKQKIIFNNQELFDLKAAIDTKDSQTNSQLFNYFKDKAFPNLSARQLGVMPDLVLDMFINGYYLNVFKTQSTDVNRPYQDKDKRGGIFDAVFTRGDQTKLLTARHDLKNKGLNDISDLIKQELTEGKALALSHTYANVSINHVINLWGADFNAEGNLEAIYVTDSDANASIGMKKYFVGINASGKVAISAKKIEGENIGAQVLGLFTLSSGKDIWQKLS ?
Result: 189 ng/µL
